# Test system: Rattus norvegicus
# test_protocol: The compound was evaluated in vivo for its ability to inhibit formalin induced flinching in rats by intrapaw administration
# Assay type: functional
metric_name: A50
Just the number plus its unit, please.

Would you please look over these solved cases?
CN(C(=O)Cc1ccc(C(F)(F)F)cc1)[C@H](CN1CCCC1)c1ccccc1
0.82 µg
CN(C(=O)Cc1ccc(Cl)c(Cl)c1N)[C@H](CN1CCCC1)c1ccccc1
7 µg
CN(C(=O)Cc1ccc(Cl)c(Cl)c1N(S(C)(=O)=O)S(C)(=O)=O)[C@H](CN1CCCC1)c1ccccc1
28 µg
CN(C(=O)Cc1ccc(Cl)c(Cl)c1[N+](=O)[O-])[C@H](CN1CCCC1)c1ccccc1
5.3 µg
CN(C(=O)Cc1ccc(Cl)c(Cl)c1)[C@H](CN1CCCC1)c1ccccc1
0.74 µg

Requested field: A50. Item: CN(C(=O)Cc1ccccc1N(S(C)(=O)=O)S(C)(=O)=O)[C@H](CN1CCCC1)c1ccccc1 17 µg

Would you kindly share the measured A50 for CN(C(=O)Cc1ccccc1N)[C@H](CN1CCCC1)c1ccccc1 ? 65 µg

I am curious: what A50 value has been reported for CN(C(=O)Cc1ccccc1[N+](=O)[O-])[C@H](CN1CCCC1)c1ccccc1 ? 29 µg

----------
Each entry below carries its recorded log10 of A50.
# Test system: Rattus norvegicus
# test_protocol: The compound was evaluated in vivo for their ability to inhibit formalin induced flinching in rats by subcutaneous administration
# Type: functional
Friendly reminder: values = log10 of A50, unit mg/kg.

I am curious: what log10 of A50 value has been reported for CN(C(=O)Cc1ccccc1N)[C@H](CN1CCCC1)c1ccccc1 ? 0.18

Any idea what its log10 of A50 is? The molecule is CN(C(=O)Cc1ccc(Cl)c(Cl)c1)[C@H](CN1CCCC1)c1ccccc1 [ICI-199,441] -1.30

Fill blank: measured log10 of A50 of the molecule CN(C(=O)Cc1cccc(C(F)(F)F)c1)[C@H](CN1CCCC1)c1ccccc1 is ____. -1.70

Looking for the measured log10 of A50 of CN(C(=O)Cc1ccccc1C(F)(F)F)[C@H](CN1CCCC1)c1ccccc1 , can you help? -0.27

Quick one: log10 of A50 for CN(C(=O)Cc1ccc(Cl)c(Cl)c1[N+](=O)[O-])[C@H](CN1CCCC1)c1ccccc1 ? -0.62

Any idea what log10 of A50 was measured for CN(C(=O)Cc1ccc(C(F)(F)F)cc1)[C@H](CN1CCCC1)c1ccccc1 ? -2.05
